Tested on: TZM-bl cells
Experiment: Cytotoxicity (CC50) in TZM-bl cells, luminescence (CTG)
Type: cell-based
Settings: TZM-bl cells, cultured for 48 hours
value.kind: CC50
Just so you know, I need the unit written after the number.

Provide reported CC50 for each item, in the same order as listed.
1. COCCOCCOCCOCCOCCOCCOCCOCCOCCOCCOCCOCCOCCOCCOCCOCCOCCOCCOCCOCCOCCOCCOCCOCCNC(=O)CCC(=O)N[C@@H](CCCNC(=N)N)C(=O)NCCN1CCC(NC(=O)C(=O)Nc2ccc(Cl)cc2)CC12CCCCC2 (some centres unmarked)
2. CC1(C)CC(NC(=O)C(=O)Nc2ccc(Cl)cc2)CC(C)(C)N1 [NBD-556, reference compound]

[reply]
["40 µM", "177 µM"]

====

Tested on: HIV isolate (KP5mvcR)
Experiment: microbe, parasite or virus in culture
Format: cell-based, HIV-1
Settings: Human immunodeficiency virus 1, TZM-bl, 48 h, read-out: IC50 KP-5mvcR
Field: IC50. Provide a value for each of the compounds that follow.
Answers are plain numbers, in nM.

COCCOCCOCCOCCOCCNC(=O)CCC(=O)OC(CCCNC(=N)N)C(=O)NCCN1CCC(NC(=O)C(=O)Nc2ccc(Cl)cc2)CC12CCCCC2 (centres unmarked) [YIS-540] = 17
COCCOCCOCCOCCOCCNC(=O)CCC(=O)N[C@@H](CCCNC(=N)N)C(=O)NCCN1CCC(NC(=O)C(=O)Nc2ccc(Cl)cc2)CC12CCCCC2 (some centres unmarked) [TKB-001] = 130
CCCCCCCCCCCCCCCCNC(=O)CCC(=O)OC(CCCNC(=N)N)C(=O)NCCN1CCC(NC(=O)C(=O)Nc2ccc(Cl)cc2)CC12CCCCC2 (centres unmarked) [YIS-527] = 1200

Now for the compound whose IC50 we want.
Entry under test: O=C1Nc2ccc(Cl)cc2[C@@](C#CC2CC2)(C(F)(F)F)O1 [EFV, efavirenz, reference compound] . Its IC50 was 4.1

====

Test: Cytotoxicity (CC50) in TZM-bl cells, luminescence (CTG)
Format: cell-based
Details: human
Field: CC50 at 48 h. Provide a value for each of the compounds that follow.
Give bare numbers, in µM.

COCCOCCOCCOCCOCCNC(=O)CCC(=O)OC(CCCNC(=N)N)C(=O)NCCN1CCC(NC(=O)C(=O)Nc2ccc(Cl)cc2)CC12CCCCC2 (stereo not shown) = 109

Entry under test: CCCCCCCCCCCCCCCCNC(=O)CCC(=O)OC(CCCNC(=N)N)C(=O)NCCN1CCC(NC(=O)C(=O)Nc2ccc(Cl)cc2)CC12CCCCC2 (stereo not shown) . Its CC50 at 48 h was 17

====

Experiment: Blood half-life after intravenous injection, blood concentration by HPLC
Format: in vivo, Macaque monkey
Conditions: blood, 23.4 μmol; Macaque monkey MM616, intravenous injection
value.kind: half-life (h)
Answers are plain numbers, in h.

Entry under test: COCCOCCOCCOCCOCCOCCOCCOCCOCCOCCOCCOCCNC(=O)CCC(=O)N[C@@H](CCCNC(=N)N)C(=O)NCCN1CCC(NC(=O)C(=O)Nc2ccc(Cl)cc2)CC12CCCCC2 (stereo partly shown) [TKB-002] . Its half-life was 1.8
